Recorded values, source PubChem BioAssay (NCI).

# test.protocol: NCI Yeast Anticancer Drug Screen. Data for the cln2 rad14 strain (AID 165);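 note: 0% = growth equal to vehicle treated cultures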
# stated.conditions: S. cerevisiae cln2 rad14 strain, at 5.0 µM (retest, dose inferred, filed as 0.5), stronger effect = higher value
Compounds without any hit were thinned out: in the full panel of roughly 79,000, 15% have a hit.
Measured growth inhibition, listed per entry for reference.
result.type: growth inhibition (%)

>>> data_value("CC(C)=NOc1ccc([N+](=O)[O-])cc1[N+](=O)[O-]")
2
>>> data_value("C[C@]12CCC(=O)C=C1CC[C@@H]1[C@@H]2[C@@H](O)C[C@@]2(C)[C@H]1CC[C@]2(O)C(=O)COC(=O)CCC1CCCC1")
49
>>> data_value("CCOC(=O)C(C)(C)Oc1ccc2c(=O)cc(-c3ccccc3)oc2c1")
6
>>> data_value("CC(C)C1COC(c2ccc3ccccc3c2-c2c(O[Si](C)(C)C(C)(C)C)ccc3ccccc23)=N1 (stereo not given)")
13
>>> data_value("O=C(CC(c1ccccc1)c1ccccc1)NCCCCN1CCCCCCC1")
2
>>> data_value("C=C(c1ccc2nc(NC(=O)OC)[nH]c2c1)c1cccs1")
-9
>>> data_value("CCCCCCCCCCCCCCCCCCOP(=O)([O-])OCC[N+](C)(C)C")
15
>>> data_value("CC(C)C1=C(O)c2ccccc2C(=O)C1=O")
-21
>>> data_value("C=CCOC(=O)CC(O)C(=O)OCC=C (stereo not given)")
1
>>> data_value("Oc1cc(O)c2c(c1)OC(c1ccc(O)c(O)c1)C(OC1(c3cc(O)c(O)c(O)c3)Oc3cc(O)cc(O)c3C(O)C1O)C2 (stereo not given)")
-31
